Where do the numbers come from? From patent US20180057596A1.

# target.desc: T1, cynomolgus IL-4Rα HIS FLAG (cynomolgus)
# T1 construct: also called Cyno IL4Rα HIS FLAG; not shown: HIS and FLAG tags and any vector-encoded linker of the cynomolgus HIS FLAG construct
# T1 chain: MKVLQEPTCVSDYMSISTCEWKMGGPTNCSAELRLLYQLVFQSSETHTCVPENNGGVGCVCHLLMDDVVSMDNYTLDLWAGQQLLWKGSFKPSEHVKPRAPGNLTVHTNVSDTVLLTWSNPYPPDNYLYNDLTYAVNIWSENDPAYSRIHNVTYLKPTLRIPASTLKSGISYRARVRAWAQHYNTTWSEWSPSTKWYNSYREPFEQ
# assay.method.text: SPR (BIAcore 2000), IgG captured on Protein G', receptor as analyte, 1:1 Langmuir
property.name: koff (s⁻¹)
Enter your answer as a number in s⁻¹; do not include the unit.

binder	unit.annotation	koff
Antibody 2 IgG (antibody, V domains shown) VH: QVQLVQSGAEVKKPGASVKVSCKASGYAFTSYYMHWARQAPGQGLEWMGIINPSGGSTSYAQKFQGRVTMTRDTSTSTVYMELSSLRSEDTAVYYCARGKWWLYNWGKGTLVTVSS VL: QSVLTQPPSVSAAPGQKVTISCSGGSSNIGNSYVSWYQQLPGTAPKLLIYDNNKRPSGIPDRFSGSKSGTSATLAITGLQTGDEADYYCGTWDTSQPPNPLFGTGTKLTVL	s⁻¹	0.00459

Please examine the following record next.
For Antibody 20 IgG (antibody, V domains shown) VH: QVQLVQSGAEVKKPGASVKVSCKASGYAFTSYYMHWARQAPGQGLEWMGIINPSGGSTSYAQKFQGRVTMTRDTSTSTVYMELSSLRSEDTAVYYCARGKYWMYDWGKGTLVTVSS VL: QSVLTQPPSVSAAPGQKVTISCSGGSSNIGNSYVSWYQQLPGTAPKLLIYDNNKRPSGIPDRFSGSKSGTSATLAITGLQTGDEADYYCGTWDTSTVWEWPFGTGTKLTVL , what is its reported koff?
0.00452
